For each entry below, report its Corn plant response rating (crop injury, 0 = no effect, 100 = complete kill) at 500 g/ha value.
Test system: corn (Zea mays)
EXPERIMENTAL_PROTOCOL: Test A postemergence
Type: in vivo
SETTINGS: Zea mays, post-emergence, 240 h, Postemergence, 500 g ai/ha; visual injury, 0 to 100 scale (0 no effect, 100 complete control), approx. 10 d
Answers are plain numbers, in %.

Consider the reported Corn plant response rating (crop injury, 0 = no effect, 100 = complete kill) at 500 g/ha for these molecules:
* O=C1NC[C@H](c2cncc(C(F)(F)F)c2)[C@H]1C(=O)Nc1cccc(F)c1F | 70
* CN1C[C@H](c2cc(C(F)(F)F)cs2)[C@@H](C(=O)Nc2cccc(F)c2F)C1=O | 80

Record Corn plant response rating (crop injury, 0 = no effect, 100 = complete kill) at 500 g/ha for all entries; do not skip any.
1. CN1C[C@H](c2ccc3c(c2)CCO3)[C@@H](C(=O)Nc2cccc(F)c2F)C1=O
2. O=C1NC[C@H](c2ccc(OC(F)F)cc2)[C@H]1C(=O)Nc1ccc(F)cc1F

Solution:
80
50
